// values below are reported Percent Siglec-7 Surface Expression, Monocytes
target: human Siglec-7 expressed on human cells (primary monocytes, dendritic cells, macrophages, NK cells, … (human, UniProt Q9Y286 19-467)); assay: cell-based or functional assay
Sequence (Q9Y286 19-467): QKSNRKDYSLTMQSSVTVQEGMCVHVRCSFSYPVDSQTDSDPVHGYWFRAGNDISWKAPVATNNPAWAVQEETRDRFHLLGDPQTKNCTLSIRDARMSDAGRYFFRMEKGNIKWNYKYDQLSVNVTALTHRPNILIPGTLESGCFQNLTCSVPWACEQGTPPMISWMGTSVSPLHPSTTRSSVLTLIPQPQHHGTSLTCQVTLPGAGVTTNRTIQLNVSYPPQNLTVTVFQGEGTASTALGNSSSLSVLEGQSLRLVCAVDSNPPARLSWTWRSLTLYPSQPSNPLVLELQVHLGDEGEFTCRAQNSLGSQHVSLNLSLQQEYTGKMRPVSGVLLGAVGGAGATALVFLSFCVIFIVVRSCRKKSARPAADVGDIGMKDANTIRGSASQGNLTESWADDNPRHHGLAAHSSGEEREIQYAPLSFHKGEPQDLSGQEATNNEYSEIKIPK
Express the result in % but write the number alone.

A selection of reference data follows.
• anti-Siglec-7 antibody 7A3 (antibody, V domains shown, Variable domains assembled from FR and CDR entries; VL FR1 and VH FR1 hold Z and VH FR1 looks shortened at its N-terminus) VH: LVZSGGALVKPGGSLKLSCAASGFTFSNYAMSWVRQTPEKRLEWVASISSGGSYNYYPDSVKGRFTISRDNARNTLYLQMSSLRSKDTAMYYCASQSYGSSYWYFDVWGAGTTVTVSS VL: DIQMTQZPATLSVTPGDRVSLSCRASQSISEYLHWYHQKSHESPRLLIKFASQSICGIPSRFSGSGSGSDFTLTINSVEPEDVGVYYCQNGHNFPYTFGGGTKLEIK = 23.7
• anti-Siglec-7 antibody 3E11 (antibody, V domains shown, Variable domains assembled from FR and CDR entries) VH: QVQLQQSGAELARPGASVKLSCKASGYIFTDYGITWVKQRTGQGLEWIGEISPRSGETYFNENYRVKATLTADKSSSTAYMQLFSLTSEDSAVYFCAREGNPFTYWGHGTLVTVSA VL: DVZMTQTPLSLPVSLGDQASISCRSSQSLVHSTGNTYLHWYLQKPGQSPKLLIYKVSNRFCGVPDRFSGSGAGTDFTLKISRVEAEDLGVYFCSQNTHVPYTFGGGTKLEIK = 23.9

The record that follows has no Percent Siglec-7 Surface Expression, Monocytes shown yet.
Query: Percent Siglec-7 Surface Expression, Monocytes; subject: anti-Siglec-7 antibody 4D7 (antibody, V domains shown, Variable domains assembled from FR and CDR entries) VH: QVQLQQSGAELVKPGASVKLSCKTSGYTFTNYWINWVKQRPGQGLEWIGNIYSGSSRTNYNEKFKSKATLTVDTSSSTAYMQLSSLTSDDSAVYYCAREGLRAMDYWGQGTSVTVSS VL: NZMTQFQKFMSTSVGDRVSLTCKASQKVGTNVAGFQQKPGHSPKAGIYSASTRHRGVQDRFTARGLGSDFILPITTZQLEDLAEYZCHQGNSVQYTFGGGTKLEIK
33.9
